Attribution: ChEMBL document CHEMBL4017448

assay overview: AUC (0 to 8 hrs) in rat at 1 mg/kg, po
Type: ADME, organism-based
Set-up: time < 8 hr, dose 1 mg/kg, route oral
experimental conditions: in vivo
quantity: AUC(0-t) at 8 h

- molecule smiles: "Cc1cc(C(=O)O)nn1Cc1cc(Cl)cc2cc(-c3ccccc3)nn12"
  quantity: "AUC(0-t) at 8 h"
  reported measurement: "4870 ng·h/mL"

---

assay overview: Volume of distribution in rat at 1 mg/kg, iv
Type: ADME, organism-based
experimental conditions: in vivo

- molecule smiles: "Cc1cc(C(=O)O)nn1Cc1cc(Cl)cc2cc(-c3ccccc3)nn12"
  readout units: "L/kg"
  Vd: 0.908

---

assay overview: AUC (0 to 8 hrs) in rat at 1 mg/kg, iv
Format: ADME, organism-based
Design: dose 1 mg/kg, time < 8 hr, route intravenous
experimental conditions: in vivo

- molecule smiles: "Cc1cc(C(=O)O)nn1Cc1cc(Cl)cc2cc(-c3ccccc3)nn12"
  AUC(0-t) at 8 h, ng·h/mL: 5010

---

assay target: Prostaglandin E2 receptor EP1 subtype (Rattus norvegicus, UniProt P70597)
Sequence (P70597 whole entry): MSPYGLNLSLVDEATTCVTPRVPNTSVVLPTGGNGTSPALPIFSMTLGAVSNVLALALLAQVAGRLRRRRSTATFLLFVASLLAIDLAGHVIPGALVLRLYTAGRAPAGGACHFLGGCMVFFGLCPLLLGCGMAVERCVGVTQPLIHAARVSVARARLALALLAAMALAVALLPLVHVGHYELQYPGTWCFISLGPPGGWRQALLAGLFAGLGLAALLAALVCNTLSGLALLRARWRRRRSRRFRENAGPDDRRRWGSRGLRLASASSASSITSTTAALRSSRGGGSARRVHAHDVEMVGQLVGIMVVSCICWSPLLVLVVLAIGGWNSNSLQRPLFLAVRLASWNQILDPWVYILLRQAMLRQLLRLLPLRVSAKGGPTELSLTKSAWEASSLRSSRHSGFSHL
assay overview: Antagonist activity at rat EP1 receptor expressed in African green monkey COS1 cells assessed as decrease in prostaglandin E2-induced increase in intracellular calcium level incubated for 90 mins measured for 60 secs by Fluo 4-AM dye based fluorescence assay
Binning of IC50 into classes: bottom bin: < 300 nM; middle bin: ≥ 300 nM and < 800 nM; top bin: ≥ 800 nM

- molecule smiles: "O=C(O)c1ccn(Cc2cc(Cl)cc3cc(-c4ccccc4)nn23)c1"
  discrete label: "bottom bin"
- molecule smiles: "Cc1cc(C(=O)O)nn1Cc1cc(Cl)cc2cc(-c3ccc(Cl)cc3)nn12"
  discrete label: "bottom bin"
- molecule smiles: "Cc1cc(C(=O)O)nn1Cc1ccc(Cl)c2cc(-c3ccccc3)nn12"
  discrete label: "top bin"
- molecule smiles: "CCCc1cc(C(=O)O)nn1Cc1cc(Cl)cc2cc(-c3ccccc3)nn12"
  discrete label: "bottom bin"
- molecule smiles: "Cc1cc(C(=O)O)nn1Cc1cc(Cl)cc2cc(-c3ccccc3)nn12"
  discrete label: "bottom bin"
- molecule smiles: "CC(=O)c1cc(Cn2nc(C(=O)O)cc2C)n2nc(-c3ccccc3)cc2c1"
  discrete label: "middle bin"
- molecule smiles: "Cc1cc(C(=O)O)nn1Cc1cc(Cl)cc2cc(C3CCCC3)nn12"
  discrete label: "middle bin"
- molecule smiles: "Cc1cc(C(=O)O)nn1Cc1cc(Cl)cc2cc(C3CCCCC3)nn12"
  discrete label: "bottom bin"
- molecule smiles: "Cc1cc(C(=O)O)nn1Cc1cccc2cc(-c3ccccc3)nn12"
  discrete label: "bottom bin"
- molecule smiles: "COc1ccccc1-c1cc2cc(Cl)cc(Cn3nc(C(=O)O)cc3C)n2n1"
  discrete label: "top bin"
- molecule smiles: "C=Cc1cc(Cn2nc(C(=O)O)cc2C)n2nc(-c3ccccc3)cc2c1"
  discrete label: "middle bin"
- molecule smiles: "COc1cc(Cn2nc(C(=O)O)cc2C)n2nc(-c3ccccc3)cc2c1"
  discrete label: "top bin"
- molecule smiles: "O=C(O)c1ccn(Cc2cc(Cl)cc3cc(-c4ccccc4)nn23)n1"
  discrete label: "bottom bin"
- molecule smiles: "Cc1cc(C(=O)O)nn1Cc1c(Cl)ccc2cc(-c3ccccc3)nn12"
  discrete label: "middle bin"
- molecule smiles: "CCCCc1cc2cc(Cl)cc(Cn3nc(C(=O)O)cc3C)n2n1"
  discrete label: "top bin"
- molecule smiles: "Cc1cc(C(=O)O)nn1Cc1cc(Cl)cc2cc(C3CC3)nn12"
  discrete label: "bottom bin"
- molecule smiles: "CCCC/C=C/c1cc(Cn2nc(C(=O)O)cc2C)n2nc(-c3ccccc3)cc2c1"
  discrete label: "top bin"
- molecule smiles: "COc1ccc(Cn2nc(C(=O)O)cc2C)n2nc(-c3ccccc3)cc12"
  discrete label: "top bin"
- molecule smiles: "Cc1cc(C(=O)O)nn1Cc1cc(C#N)cc2cc(-c3ccccc3)nn12"
  discrete label: "top bin"
- molecule smiles: "COc1ccc(-c2cc3cc(Cl)cc(Cn4nc(C(=O)O)cc4C)n3n2)cc1"
  discrete label: "middle bin"
- molecule smiles: "Cc1cc(C(=O)O)nn1Cc1cc(Cl)cc2cc(C(C)(C)C)nn12"
  discrete label: "top bin"

---

assay overview: AUC (0 to infinity) in rat at 1 mg/kg, po
Type: ADME, organism-based
Parameters: dose 1 mg/kg, route oral, time infinity
experimental conditions: in vivo

- molecule smiles: "Cc1cc(C(=O)O)nn1Cc1cc(Cl)cc2cc(-c3ccccc3)nn12"
  AUC(0-inf) [ng·h/mL]: 6030
